system: Eimeria acervulina; assay: Anticoccidial activity in chicken against Eimeria acervulina.; type: functional; set-up: concentration or dose not given beside the values
# Reduction per record follows
endpoint_name: Reduction

>  <smiles_record>
NC(=O)c1nnn(Cc2cc(Cl)c(C(=O)c3cc(Cl)cc(Cl)c3)c(Cl)c2)c1N

>  <measured>
> 99%

$$$$
>  <smiles_record>
NC(=O)c1ncn(Cc2ccc(Cl)c(Cl)c2)c1N

>  <measured>
>99%

$$$$
>  <smiles_record>
NC(=O)c1nnn(Cc2cc(Cl)c(C(=O)c3ccc(Br)cc3)c(Cl)c2)c1N

>  <measured>
80%

$$$$
>  <smiles_record>
NC(=O)c1nnn(Cc2ccc(Cl)cc2)c1N

>  <measured>
80%

$$$$
>  <smiles_record>
NC(=O)c1nnn(Cc2cc(Cl)c(C(=O)c3ccccc3)c(Cl)c2)c1N

>  <measured>
90%

$$$$
